Test system: 885512-296-R-J2-PDC complex spheroid viability;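 further: spheroids exposed to the compounds for one week; percent of tumor spheroid viability relative to DMSO vehicle control wells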
Experiment: Anticancer human tumor 885512-296-R-J2-PDC patient-derived breast carcinoma cell line growth inhibition [GQUAD]
Details: second compound 0.316 µM; first compound 0.1 µM; hits give low values
MEASURED_METRIC: viability, T/C (%)
Numbers only, in %.

{"COMPOUND": "CC(C)(O)C1CCC(Nc2ccc3ncc(-c4cccc(C(F)(F)F)c4)n3n2)CC1 (stereo not drawn) + CN(C)c1ccc(Nc2c3ccc(NC(=O)CCN4CCCC4)cc3nc3cc(NC(=O)CCN4CCCC4)ccc23)cc1", "ASSAYED_SYSTEM": "885512-296-R-J2-PDC complex spheroid viability", "viability, T/C [%]": 98.6}

For every item below, please supply its viability, T/C.
1. CC(C)n1c(=O)n(C)c2cnc3cc(F)c(-c4ccc(OCCCN5CCCCC5)nc4)cc3c21 + Cc1[nH]c2ccc(F)cc2c1-c1nc2c3cccnc3c3ncccc3c2[nH]1
2. C#Cc1c(F)ccc2cc(O)cc(-c3ncc4c(N5CC6CCC(C5)N6)nc(OCC56CCCN5CC(F)C6)nc4c3F)c12 (stereo not drawn) + Cc1[nH]c2ccc(F)cc2c1-c1nc2c3cccnc3c3ncccc3c2[nH]1

1: 77.6; 2: 87.4

Reference source for all entries: PubChem BioAssay AID2060490
